Entry source: PubChem BioAssay (NCI)

Give measured TGI for each item. Keep answers brief.
System: LOX IMVI melanoma
assay: NCI tumour cell line growth inhibition, 48 h
Enter your answer as a number in µM; do not include the unit.

For the molecule `COc1ccc(OC)c(Cc2cnc3nc(N)nc(N)c3c2C)c1` , what TGI is on record?
25.6

For the molecule `N#Cc1cc2c(cc1Cl)Sc1nnc(Nc3cccc4ccccc34)n1S2(=O)=O` , what TGI is on record?
10.3

For the molecule `O=c1ccc2ccccc2c2ccccc12` , what TGI is on record?
3.99

For the molecule C=C(CCC=C(C)C)C1CC=C(C)CC1 (stereo not given) , what TGI is on record?
21.9

For the molecule `Fc1ccc2nc(-c3nc(-c4ccccc4)n4ccccc34)[nH]c2c1` , what TGI is on record?
20.2
